src = patent US11116760B2

- TEST TARGET: α4β7 integrin (Homo sapiens (Human), UniProt P13612+P26010)
- Sequence (P13612 34-1032): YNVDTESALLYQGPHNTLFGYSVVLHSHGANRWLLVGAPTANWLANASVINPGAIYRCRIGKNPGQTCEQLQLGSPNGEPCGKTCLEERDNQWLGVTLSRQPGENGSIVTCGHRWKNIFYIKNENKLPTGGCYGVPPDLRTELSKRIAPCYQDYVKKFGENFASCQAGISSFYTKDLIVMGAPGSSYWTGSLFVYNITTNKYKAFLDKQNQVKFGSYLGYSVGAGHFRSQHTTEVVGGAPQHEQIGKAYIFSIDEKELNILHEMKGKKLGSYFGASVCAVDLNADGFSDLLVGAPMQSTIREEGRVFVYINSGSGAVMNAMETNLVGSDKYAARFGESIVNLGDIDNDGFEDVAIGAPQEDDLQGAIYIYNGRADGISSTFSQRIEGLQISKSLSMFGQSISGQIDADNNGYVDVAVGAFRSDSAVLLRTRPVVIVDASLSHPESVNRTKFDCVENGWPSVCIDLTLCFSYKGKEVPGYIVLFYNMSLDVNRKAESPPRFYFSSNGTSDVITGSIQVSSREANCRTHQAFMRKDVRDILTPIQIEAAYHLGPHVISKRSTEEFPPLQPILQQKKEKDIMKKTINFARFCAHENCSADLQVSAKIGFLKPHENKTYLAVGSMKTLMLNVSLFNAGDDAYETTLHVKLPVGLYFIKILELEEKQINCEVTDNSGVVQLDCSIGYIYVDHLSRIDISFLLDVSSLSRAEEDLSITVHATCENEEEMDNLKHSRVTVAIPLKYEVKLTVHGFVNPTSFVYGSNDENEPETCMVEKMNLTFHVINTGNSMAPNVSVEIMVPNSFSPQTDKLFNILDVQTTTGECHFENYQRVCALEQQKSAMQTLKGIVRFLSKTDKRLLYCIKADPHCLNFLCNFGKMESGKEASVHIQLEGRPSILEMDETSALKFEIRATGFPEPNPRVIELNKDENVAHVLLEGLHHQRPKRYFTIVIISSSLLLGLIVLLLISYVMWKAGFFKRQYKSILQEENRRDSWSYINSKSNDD
- Sequence (P26010 20-798): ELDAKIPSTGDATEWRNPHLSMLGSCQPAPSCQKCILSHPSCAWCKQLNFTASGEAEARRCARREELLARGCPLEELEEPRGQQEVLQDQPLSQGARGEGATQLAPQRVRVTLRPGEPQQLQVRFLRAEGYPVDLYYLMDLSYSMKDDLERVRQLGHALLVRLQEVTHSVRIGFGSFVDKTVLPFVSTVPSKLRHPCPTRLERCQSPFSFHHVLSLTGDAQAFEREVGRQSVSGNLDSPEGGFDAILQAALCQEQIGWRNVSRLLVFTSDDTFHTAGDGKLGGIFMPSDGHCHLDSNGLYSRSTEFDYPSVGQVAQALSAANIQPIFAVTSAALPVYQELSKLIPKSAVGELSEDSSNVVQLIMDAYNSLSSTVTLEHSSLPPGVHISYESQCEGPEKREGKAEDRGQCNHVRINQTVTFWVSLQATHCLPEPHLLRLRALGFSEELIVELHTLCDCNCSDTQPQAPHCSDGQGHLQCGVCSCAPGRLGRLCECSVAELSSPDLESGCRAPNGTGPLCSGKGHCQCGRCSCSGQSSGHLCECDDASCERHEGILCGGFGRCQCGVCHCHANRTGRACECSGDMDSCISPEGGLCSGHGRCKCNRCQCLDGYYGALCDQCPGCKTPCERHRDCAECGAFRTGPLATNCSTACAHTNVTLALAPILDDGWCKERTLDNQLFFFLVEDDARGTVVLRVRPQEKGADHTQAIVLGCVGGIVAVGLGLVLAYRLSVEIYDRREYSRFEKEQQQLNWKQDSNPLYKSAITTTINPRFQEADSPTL
- ASSAY: α4β7 Integrin Cell Capture Assay
- Format: cell-based
- STUDY CONDITIONS: RPMI8866 cells captured on MadCAM-1 extracellular domain-coated plate
pEC50: −log10 of the molar value.
OBSERVATION TYPE: pEC50

Solved cases (8 shown):
Ask: Request the reported pEC50 associated with Cc1cc(C(F)(F)F)c(-c2ccc(C[C@H](NC(=O)c3c(F)cc(N4CCN(C)C[C@@H]4C(F)(F)F)cc3F)C(=O)O)c3cccnc23)c(=O)n1C (atropisomer, axis not shown)
Result: 8.88

Ask: Request the reported pEC50 associated with Cc1cc(N2CCOC[C@@H]2C(F)(F)F)cc(F)c1C(=O)N[C@@H](Cc1ccc(-n2c(=O)c3c(n(C)c2=O)CCOC3)c2ncccc12)C(=O)O
Result: 10.04

Ask: Request the reported pEC50 associated with Cc1cc(N2CCOC[C@@H]2C(F)(F)F)cc(F)c1C(=O)N[C@@H](Cc1ccc(-c2c(C)c(Cl)cn(C)c2=O)c2ncccc12)C(=O)O
Result: 9.68

Ask: Request the reported pEC50 associated with Cc1cc(N2CCOC[C@@H]2C(F)(F)F)cc(F)c1C(=O)N[C@@H](Cc1ccc(-c2nc(C)c(C)c(C)n2)c2ncccc12)C(=O)O
Result: 9.15

Ask: Request the reported pEC50 associated with [2H]C([2H])([2H])c1cc(N2CCOC[C@@H]2C(F)(F)F)cc(F)c1C(=O)N[C@@H](Cc1ccc(-c2c(C(F)(F)F)cc(C)n(C)c2=O)c2ncccc12)C(=O)O
Result: 9.99

Ask: Request the reported pEC50 associated with COc1cc2c(=O)n(-c3ccc(C[C@H](NC(=O)c4c(F)cc(N5CCOC[C@@H]5C(F)(F)F)cc4F)C(=O)O)c4cccnc34)c(=O)n(C)c2cn1
Result: 9.74

Ask: Request the reported pEC50 associated with Cc1cc(N2CCOC[C@@H]2C(F)(F)F)cc(F)c1C(=O)N[C@@H](Cc1ccc(-c2c(Cl)cc(C)n(C)c2=O)c2ncccc12)C(=O)O
Result: 10.04

Ask: Request the reported pEC50 associated with Cc1cnc(-c2ccc(C[C@H](NC(=O)c3c(C)cc(N4CCOC[C@@H]4C(F)(F)F)cc3F)C(=O)O)c3cccnc23)nc1C
Result: 8.83

A: Cc1nc2c(s1)c(=O)n(-c1ccc(C[C@H](NC(=O)c3c(C)cc(N4CCOC[C@@H]4C(F)(F)F)cc3F)C(=O)O)c3cccnc13)c(=O)n2C
B: Cc1cc(N2CCOC[C@@H]2C(F)(F)F)cc(F)c1C(=O)N[C@@H](Cc1ccc(-n2c(=O)c3ccncc3n(C)c2=O)c2ncccc12)C(=O)O (single isomer, unassigned) [Example 407]
Ask: # query: argmin of pEC50 over A and B I would appreciate it if you answered with the label of your choice.
Result: B
(B: 9.79, A: 10.27)

----------
- TEST TARGET: α4β7 integrin (Homo sapiens (Human), UniProt P13612+P26010)
- ASSAY: α4β7 Integrin Cell Capture Assay
- Assay type: cell-based
- STUDY CONDITIONS: Table 1; capture of α4β7 expressing RPM18866 cells on MadCAM-1 extracellular domain-coated plate
pEC50: −log10 of the molar value.
OBSERVATION TYPE: pEC50

Ask: Request the reported pEC50 associated with CS(=O)(=O)Cc1cc(F)c(C(=O)N[C@@H](Cc2ccc(-c3ccc(C#N)cc3Cl)c3ncccc23)C(=O)O)c(F)c1 [Example 48]
Result: 7.28

P: N#Cc1ccc(-c2ccc(C[C@H](NC(=O)c3c(F)cc(N[C@H](C4CC4)C(F)(F)F)cc3F)C(=O)O)c3cccnc23)c(Cl)c1 [Example 90]
Q: CC[C@@H](Nc1cc(F)c(C(=O)N[C@@H](Cc2ccc(-c3c(C(F)(F)F)cc(C)n(C)c3=O)c3ncc(F)cc23)C(=O)O)c(F)c1)C(F)(F)F [Example 140]
Ask: Sorting by pEC50 in descending order, would P or Q appear first? I would appreciate it if you answered with the label of your choice.
Result: Q
(Q: 9.30, P: 7.95)

----------
- TEST TARGET: α4β7 integrin (Homo sapiens (Human), UniProt P13612+P26010)
- ASSAY: α4β7 Integrin Cell Capture Assay
- Type: cell-based
- STUDY CONDITIONS: Table 1; capture of α4β7 expressing RPM18866 cells on MadCAM-1 extracellular domain-coated plate
OBSERVATION TYPE: EC50 (nM)

Ask: Request the reported EC50 associated with CCOCc1cc(OC)c(-c2ccc(C[C@H](NC(=O)c3c(F)cccc3F)C(=O)O)c3ccc(C)nc23)c(OC)c1
Result: 19.3

P: O=C(N[C@@H](Cc1ccc(-c2ccc(C3CC3)cc2Cl)c2ncccc12)C(=O)O)c1c(F)cc(NS(=O)(=O)c2ccc(-c3ccnc(F)c3)cc2)cc1F
Q: CC[C@@H](Nc1cc(F)c(C(=O)N[C@@H](Cc2ccc(-c3c(C(F)(F)F)c4ccncc4n(C)c3=O)c3ncccc23)C(=O)O)c(F)c1)C(F)(F)F
R: N#Cc1ccc(-c2ccc(C[C@H](NC(=O)c3c(Cl)cccc3Cl)C(=O)O)c3cc(F)cnc23)c(Cl)c1
Ask: Could you please sort these 3 entries by EC50 from high to low? Write out the labels following the order that was asked for.
Result: P, R, Q

P: N#Cc1ccc(-c2ccc(C[C@H](NC(=O)c3c(F)cccc3Cl)C(=O)O)c3cccnc23)c(Cl)c1
Q: CC[C@@H](Nc1cc(F)c(C(=O)N[C@@H](Cc2ccc(-c3ccc(C#N)cc3Cl)c3ncccc23)C(=O)O)c(F)c1)C(F)(F)F
Ask: # query: argmin of EC50 over P and Q I would appreciate it if you answered with the label of your choice.
Result: Q
(Q: 13.6 nM, P: 31.1 nM)

----------
- TEST TARGET: α4β7 integrin (Homo sapiens (Human), UniProt P13612+P26010)
- ASSAY: α4β7 Integrin Cell Capture Assay
- Type: cell-based
- STUDY CONDITIONS: Table 2; capture of α4β7 expressing RPM18866 cells on MadCAM-1 extracellular domain-coated plate
OBSERVATION TYPE: EC50 (nM)

Ask: Lab note: need EC50 for N#Cc1ccc(-c2ccc(C[C@H](NC(=O)c3c(Cl)cc4cc(C5CC5)[nH]c4c3Cl)C(=O)O)c3cccnc23)c(Cl)c1 on α4β7 integrin (Homo sapiens (Human), UniProt P13612+P26010), anyone have it?
Result: 57.8

Ask: Lab note: need EC50 for CC[C@@H](Nc1cc(F)c(C(=O)N[C@@H](Cc2ccc(-c3nc(C)c(C)c(C)c3C(F)(F)F)c3ncccc23)C(=O)O)c(F)c1)C(F)(F)F on α4β7 integrin (Homo sapiens (Human), UniProt P13612+P26010), anyone have it?
Result: 2.6

Ask: Lab note: need EC50 for Cc1cc(C(F)(F)F)c(-c2ccc(C[C@H](NC(=O)c3c(F)cc(N4CCOC[C@@H]4C(F)(F)F)cc3F)C(=O)O)c3ccc(C(F)(F)F)nc23)c(=O)n1C on α4β7 integrin (Homo sapiens (Human), UniProt P13612+P26010), anyone have it?
Result: 0.9

Ask: Lab note: need EC50 for CC[C@@H](Nc1cc(F)c(C(=O)N[C@@H](Cc2ccc(-c3c(C)cc(C)n(C)c3=O)c3ncccc23)C(=O)O)c(F)c1)C(F)(F)F on α4β7 integrin (Homo sapiens (Human), UniProt P13612+P26010), anyone have it?
Result: 0.8

Ask: Lab note: need EC50 for O=C(N[C@@H](Cc1ccc(Oc2nccc3ccccc23)c2ncccc12)C(=O)O)c1c(Cl)cccc1Cl on α4β7 integrin (Homo sapiens (Human), UniProt P13612+P26010), anyone have it?
Result: 44

Ask: Lab note: need EC50 for CC(C)(O)[C@H](F)CNC(=O)c1cc(F)c(C(=O)N[C@@H](Cc2ccc(-c3ccc(C#N)cc3Cl)c3ncccc23)C(=O)O)c(F)c1 on α4β7 integrin (Homo sapiens (Human), UniProt P13612+P26010), anyone have it?
Result: 16.2

P: O=C(N[C@@H](Cc1ccc(NC(=O)c2c(Cl)cncc2Cl)c2ncccc12)C(=O)O)c1c(F)cccc1F
Q: CC[C@@H](Nc1cc(F)c(C(=O)N[C@@H](Cc2ccc(-c3c(OC)cc(C)n(C)c3=O)c3ncccc23)C(=O)O)c(F)c1)C(F)(F)F
Ask: Sorting by EC50 in descending order, would P or Q appear first? I would appreciate it if you answered with the label of your choice.
Result: P
(P: 13.7 nM, Q: 0.6 nM)

I: CN1CCc2nc(-c3ccc(C[C@H](NC(=O)c4c(F)cc(N5CCOC[C@@H]5C(F)(F)F)cc4F)C(=O)O)c4cccnc34)ncc2C1
II: Cc1ccnc(-c2ccc(C[C@H](NC(=O)c3c(F)cc(N4CCOC[C@@H]4C(F)(F)F)cc3F)C(=O)O)c3cccnc23)n1
Ask: Sorting by EC50 in descending order, would I or II appear first? I would appreciate it if you answered with the label of your choice.
Result: I
(I: 12.5 nM, II: 4 nM)

A: CC[C@@H](Nc1cc(F)c(C(=O)N[C@@H](Cc2ccc(-c3cc(C(F)(F)F)cn(C)c3=O)c3ncccc23)C(=O)O)c(F)c1)C(F)(F)F
B: N#Cc1ccc(-c2ccc(C[C@H](NC(=O)c3c(Cl)cc4[nH]c(Cc5ccccc5)cc4c3Cl)C(=O)O)c3cccnc23)c(Cl)c1
C: Cc1c(N(C)C)cn(C)c(=O)c1-c1ccc(C[C@H](NC(=O)c2c(F)cc(N3CCOC[C@@H]3C(F)(F)F)cc2F)C(=O)O)c2cccnc12
Ask: Could you please sort these 3 entries by EC50 from high to low? Write out the labels following the order that was asked for.
Result: B, C, A

a: Cc1nc(-c2ccc(C[C@H](NC(=O)c3c(F)cc(N4CCOC[C@@H]4C(F)(F)F)cc3F)C(=O)O)c3cccnc23)nc2cc(F)ccc12
b: O=C(N[C@@H](Cc1ccc(Nc2nccc3ccncc23)c2ncccc12)C(=O)O)c1c(Cl)cccc1Cl
c: C[C@H](NC(=O)c1cc(F)c(C(=O)N[C@@H](Cc2ccc(-c3ccc(C#N)cc3Cl)c3ncccc23)C(=O)O)c(F)c1)C(F)(F)F
d: COc1c(-c2ccc(C[C@H](NC(=O)c3c(F)cc(N[C@H](C)C(F)(F)F)cc3F)C(=O)O)c3cccnc23)c(=O)n(C)c2ccccc12
e: Cc1cc(C(F)(F)F)c(-c2ccc(C[C@H](NC(=O)c3c(F)cc(N4CCO[C@@H](C)C4)cc3F)C(=O)O)c3cccnc23)c(=O)n1C
Ask: Order by EC50, ascending. Write out the labels following the order that was asked for.
Result: d, e, a, b, c
(d: 0.3 nM, e: 0.7 nM, a: 1.7 nM, b: 26.1 nM, c: 62.3 nM)
